system: NCI-H460 lung; assay: NCI tumour cell line growth inhibition, 48 h
Record form. Attribute: TGI. Fill in for each entry.
Give bare numbers, in µM.

# count of solved cases: 2
// CCCCCCCCCCCCC(=O)CCCCC(=O)O : TGI value = 39.1

// COc1cc(/C=C/[N+](=O)[O-])c([N+](=O)[O-])cc1OC : TGI value = 5.67

// next entry
// CC(C)(C)c1ccc2c(c1)OP1(Oc3cccc4cccnc34)(O2)Oc2ccc(C(C)(C)C)cc2O1 : TGI value = 12.7

----------
tested on: SK-OV-3 ovarian; test: NCI tumour cell line growth inhibition, 48 h
Record form. Attribute: TGI. Fill in for each entry.

# count of solved cases: 5
// Cc1ccc(S(=O)(=O)OCC23CCC(C2)C2CC23)cc1 (stereo not given) : TGI value = > 100 µM

// COc1ccccc1/C=C/C(=O)c1ccc(Nc2nc(Nc3ccc(F)cc3)nc(Nc3ccc(F)cc3)n2)cc1 : TGI value = > 100 µM

// COc1ccc(NC2C(=O)C3(C)CCC2C3(C)C)cc1 (stereo not given) : TGI value = > 100 µM

// CCC(=O)OCC1OC(n2cnc3c(=S)nc(N)[nH]c32)C(OC(=O)CC)C1OC(=O)CC (stereo not given) : TGI value = 14.5 µM

// Cc1ccc(O)c(-c2cc(-c3cccc(Br)c3)c(C#N)c(N)n2)c1 : TGI value = 87.3 µM

Hey, quick one: what's TGI for each of these?
1. O=C(C(=O)c1cc(-c2ccccc2)nc2ccc3ccccc3c12)c1ccccc1
2. COc1cc2c3c(c1Oc1nnnn1-c1ccccc1)-c1c(ccc4c1OCO4)C[C@H]3N(C)CC2
3. CCOC(=O)[C@]12C3C=CC(C3)C1C(=O)C1OC12 (stereo not given in full)
4. COc1cccc(-c2nc(-c3cnccn3)n(C3OC(CO)C(O)C3O)n2)c1 (stereo not given)
5. CCOC(=O)C1=C(C#N)S(=O)(=O)c2c(oc(C)c2C)N1

> 100 µM
> 100 µM
> 100 µM
> 100 µM
> 100 µM

----------
system: HOP-62 NSCLC; test: NCI tumour cell line growth inhibition, 48 h
measured parameter: TGI

Lab entry: HOP-62 NSCLC assay, compound CCOC(=O)CNC(=O)C(CSCC1C(=O)Nc2ccccc21)NC(=O)CCC(N)C(=O)OCC (centres undefined) , TGI = 4.99 µM

Lab entry: HOP-62 NSCLC assay, compound C#CC1(O)C(COP(=O)(O)OC(COCCCCCCCCCCCCCCCCCC)COP(=O)(O)OCC2OC(n3cc(C)c(=O)[nH]c3=O)CC2N=[N+]=[N-])OC(n2ccc(N)nc2=O)C1O (centres undefined) , TGI = > 74.2 µM

Lab entry: HOP-62 NSCLC assay, compound Clc1ccc(N=C2c3ccccc3CN2c2ccc(Cl)cc2)cc1 , TGI = > 100 µM

Hey, quick one: what's TGI for each of these?
1. CC1(C)C(=NNC(=S)NN)C(C)(C)C1=NNC(=S)NN
2. CCN(Cc1cc(F)cc(F)c1)c1ccc(CO)c(Cl)c1
3. NC(=O)C1CCCNC1 (centres undefined)
4. CCOc1cc(NC(C)=O)ccc1C(=O)NNS(=O)(=O)c1ccc(Cl)cc1Cl

> 100 µM
20.2 µM
> 100 µM
> 50 µM

Hey, quick one: what's TGI for each of these?
1. CCOC(=O)CCC(C(=O)OCC)n1nc2ccc(Nc3c(C)[n+]([O-])c4ccc(Cl)cc4[n+]3[O-])cc2n1 (centres undefined)
2. COc1cc(C(=O)/C=C/c2c(-c3cccs3)nc3sccn23)cc(OC)c1OC

["40.4 µM", "6.44 µM"]

----------
tested on: RPMI-8226 leukemia; assay: NCI tumour cell line growth inhibition, 48 h; in the data active = GI50 below about 0.43 µM; inactive = the rest
Lab note: assign the record to one of yes (1) = active, no (0) = inactive

Sample answers from the record:
How was CCCCc1ccc(NS(=O)(=O)c2cc3c4c(c2)CCN4C(=O)CC3)cc1 classified in this test?
no (0)

How was CC(=O)c1ccc(Nc2cc(-n3nnc4ccccc43)nc3ccccc23)cc1 classified in this test?
no (0)

How was NCCCNc1nc2ccccc2c2c(=O)c3cccc(F)c3sc12 classified in this test?
no (0)

How was CN(c1ccc(Cl)c(Cl)c1)c1cnc2cc(N)cc(N)c2n1 classified in this test?
no (0)

How was CC(c1ccccc1)N1C(=O)CSC1=S (centres undefined) classified in this test?
yes (1)

How was Cn1c([N+](=O)[O-])cnc1/C=C1\Oc2ccc(Br)cc2C1=O classified in this test?
yes (1)

How was O=C(c1ccc(Oc2ccccc2)cc1Cl)c1c[nH]c2ncnc(N[C@@H]3CC[C@@H](CO)OC3)c12 classified in this test?
no (0)

How was COc1ccccc1/C=C/C(=O)c1ccc(Nc2nc(Nc3ccc(F)cc3)nc(Nc3ccc(F)cc3)n2)cc1 classified in this test?
no (0)

How was C=C1C(O)C2C(=C(CC(C)C)C13CC3)C(=O)C(C)(C)C2O (centres undefined) classified in this test?
no (0)

How was COc1cc2c(Oc3ccc4[nH]c(C)cc4c3F)ncnc2cc1OCCCN1CCCC1 classified in this test?
no (0)

New cases:
How was COc1ccc(-c2cc(C(=O)N3N=C(c4ccc(N)cc4)CC3c3ccc(Cl)cc3)c3ccccc3n2)cc1 (centres undefined) classified in this test?
no (0)

How was Nc1nc(SCc2ccccc2)nc2[nH]ncc12 classified in this test?
no (0)

How was C=C(C)[C@@H]1/C=C(/C(C)C)CC[C@@]2(C)OC2CC[C@H](C)CC1=O (some centres undefined) classified in this test?
no (0)

How was CSc1ccc(C2=NN(c3ccccc3)C(c3ccc(-c4cc(Cl)c(Cl)cc4Cl)o3)C2)cc1 (centres undefined) classified in this test?
no (0)

----------
test system: M14 melanoma; assay: NCI tumour cell line growth inhibition, 48 h; in the data active = GI50 below about 0.43 µM; inactive = the rest
Lab note: assign the record to one of active, inactive

How was Oc1ccc(OCCOc2ccc(O)cc2)cc1 classified in this test?
inactive

How was O=C(CCCBr)Nc1ccccc1C#C/C=C\C#Cc1ccccc1C(F)(F)F classified in this test?
inactive

How was C=C1C(O)C2C(=C(CC(C)C)C13CC3)C(=O)C(C)(C)C2O (configuration not stated) classified in this test?
inactive

How was N#Cc1cc(-c2ccnc(Nc3ccc(NC(=O)CCl)cc3)n2)ccc1N1CCCC1 classified in this test?
inactive

How was CN(C)CCNc1c2c(c(NCCN(C)C)c3c(CN(C)C)c[nH]c13)C(=O)c1ccccc1C2=O classified in this test?
inactive

How was COc1cc(/C=C/c2cc(/C=C/c3ccc(O)c(OC)c3)n(C(=O)Cc3ccccc3)n2)ccc1O classified in this test?
active

How was CCN(Cc1cc(F)cc(F)c1)c1ccc(CO)c(Cl)c1 classified in this test?
inactive

----------
test system: HL-60(TB) leukemia; experiment: NCI tumour cell line growth inhibition, 48 h
Record form. Attribute: TGI. Fill in for each entry.

# count of solved cases: 2
// C=CCOC1=C(OC(C)=O)C(=O)OC1C1COC(C)(C)O1 (stereo unspecified) : TGI value = > 60.8 µM

// O=C1c2ccccc2C(=O)N1[C@@H](Cc1ccccc1)C(=O)n1cccc1CO : TGI value = > 100 µM

Hey, quick one: what's TGI for each of these?
1. O=C(O)/C(=C/c1ccccc1)c1ccccc1
2. O=C(CCC(=O)Nc1ccc(Cl)c(Cl)c1)CC(=O)c1ccc(Cl)cc1
3. CN(C)C1C(CO)OC(n2cnc3c(N)ncnc32)C1O (stereo unspecified)
4. COc1cc2c(Oc3ccc4[nH]c(C)cc4c3F)ncnc2cc1OCCCN1CCCC1
5. CC(C)(C)c1ccc2c(c1)OP1(Oc3cccc4cccnc34)(O2)Oc2ccc(C(C)(C)C)cc2O1
6. COc1cc(C(=O)/C=C/c2c(-c3cccs3)nc3sccn23)cc(OC)c1OC

["> 100 µM", "> 100 µM", "> 100 µM", "4.37 µM", "6.82 µM", "4.46 µM"]

----------
system: MALME-3M melanoma; assay: NCI tumour cell line growth inhibition, 48 h
measured parameter: TGI

// COc1cc(C(=O)Nc2cccc3ccccc23)c(Br)c(OC)c1OC : TGI value = > 100 µM

// O=C(O)[C@@H](NS(=O)(=O)c1ccc(F)cc1)c1ccccc1 : TGI value = > 100 µM

// Nc1nc(SCc2ccccc2)nc2[nH]ncc12 : TGI value = 24.3 µM

Hey, quick one: what's TGI for each of these?
1. CCOC(=O)NC(NCC(O)c1ccccc1)(C(F)(F)F)C(F)(F)F (stereo unspecified)
2. CN(C)c1ccc(C2C(Cl)C(=O)N2NC(=O)c2c(Cl)c(Cl)c(Cl)c(Cl)c2-c2nc3ccccc3[nH]2)cc1 (stereo unspecified)
3. O=C(O)C1(Nc2ccc(Cl)cc2)CCCC1

> 100 µM
36.3 µM
> 100 µM

The measured values listed here are drawn from PubChem BioAssay (NCI).
